# Species: Rattus norvegicus
# assay.notes: Open TG-GATES - Regimen: Single
# Type: toxicity, organism-based, Sprague-Dawley
# Set-up: regimen Single, gender Male, age 6 weeks
# measurement.parameters: in vivo, po, 0 mg/kg, 24 h, tissue Blood, route gavage, dose level Control
Recorded PT for the following molecules
recorded.endpoint: PT (s)

INSERT INTO measurements (molecule, recorded_endpoint, measurement_unit, numeric_value) VALUES
  ('COc1ccc(Cl)cc1C(=O)NCCc1ccc(S(=O)(=O)NC(=O)NC2CCCCC2)cc1 [GLYBURIDE]', 'PT', 's', 12.5),
  ('Cn1cnc([N+](=O)[O-])c1Sc1ncnc2nc[nH]c12', 'PT', 's', 16.2),
  ('COc1ccc(O)c(C(C)(C)C)c1.COc1ccc(O)cc1C(C)(C)C [BUTYLATED HYDROXYANISOLE]', 'PT', 's', 12.2),
  ('Cc1cnc(NC(=O)C2=C(O)c3ccccc3S(=O)(=O)N2C)s1', 'PT', 's', 11.7),
  ('Cc1cccc(Nc2cc(Cl)nc(SCC(=O)O)n2)c1C', 'PT', 's', 12.2),
  ('CS(=O)(=O)Nc1ccc([N+](=O)[O-])cc1Oc1ccccc1 [NIMESULIDE]', 'PT', 's', 11.7),
  ('S=C=Nc1cccc2ccccc12 [1-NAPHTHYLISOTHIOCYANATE]', 'PT', 's', 11.7),
  ('C=CCO', 'PT', 's', 12.2),
  ('O=C1NC(=O)C(c2ccccc2)(c2ccccc2)N1', 'PT', 's', 14.4);
